Assignment: determine reported TGI for the given compounds.
System: MCF7 breast
PROTOCOL DETAILS: NCI tumour cell line growth inhibition, 48 h

Entry "NN(CC(=O)O)CC(=O)O" — recorded TGI = > 100 µM

Entry "Clc1ccc(NCc2nnc(CCCCCCCCc3nnc(CNc4ccc(Cl)cc4)o3)o2)cc1" — recorded TGI = > 100 µM

Entry CNc1ncnc2c1ncn2C1C=CC(COS(N)(=O)=O)C1 (stereo not given) — recorded TGI = > 100 µM

Entry "C1=NCCN2CCN(CCN=Cc3ccc(cc3)OCc3cccc(n3)COc3ccc1cc3)CC2" — recorded TGI = > 50 µM

Entry COc1cc([C@@H]2OC[C@@H]3C(c4cc(OC)c5c(c4)OCO5)OC[C@@H]32)cc(OC)c1OC (stereo not given in full) — recorded TGI = > 100 µM
